For each record, write down the corresponding morphology score.
System: Vero E6 infected with SARS-CoV-2
Test: morphology score (similarity to uninfected cells); higher = more like uninfected cells
Settings: 24 h
Number, no unit, nothing else.

**Query** Consider the compound COc1cc2c(cc1C(F)(F)F)N(C(=O)Nc1cc(F)cc(-c3cccnc3)c1)CC2 (10 µM) and give its recorded morphology score.
**Result** -0.0154

**Query** Consider the compound COc1cc(N2CCOCC2)ccc1Nc1ncc(Cl)c(Nc2ccccc2NS(C)(=O)=O)n1 (10 µM) and give its recorded morphology score.
**Result** -0.034

**Query** Consider the compound CC(CCc1ccccc1)NC(C)C(O)c1ccc(O)cc1 (stereo not given) [buphenine] (10 µM) and give its recorded morphology score.
**Result** -0.137

**Query** Consider the compound COc1ccc(S(=O)(=O)Nc2c(C)cc(C)cc2C)cc1 (10 µM) and give its recorded morphology score.
**Result** 0.217

**Query** Consider the compound COc1ccc(C2CNC(=O)C2)cc1OC1CCCC1 (stereo not given) [rolipram] (10 µM) and give its recorded morphology score.
**Result** 0.39

**Query** Consider the compound CO[C@H]1C[C@H](O[C@@H]2/C(C)=C/C[C@@H]3C[C@@H](C[C@]4(CC[C@H](C)[C@@H](C5CCCCC5)O4)O3)OC(=O)[C@@H]3C=C(C)/C(=N/O)[C@H]4OC/C(=C\C=C\[C@@H]2C)[C@]43O)O[C@@H](C)[C@@H]1O [selamectin] (10 µM) and give its recorded morphology score.
**Result** 0.602

**Query** Consider the compound Nc1ncnc2c1ncn2[C@@H]1O[C@H](COP(=O)(O)OP(=O)(O)OP(=O)(O)OP(=O)(O)OC[C@H]2O[C@@H](n3cnc4c(N)ncnc43)[C@H](O)[C@@H]2O)[C@@H](O)[C@H]1O [diadenosine-tetraphosphate] (10 µM) and give its recorded morphology score.
**Result** 0.0713

**Query** Consider the compound CC(=O)Nc1ccc(S(=O)(=O)Nc2ccc([N+](=O)[O-])cc2)cc1 [sulfanitran] (10 µM) and give its recorded morphology score.
**Result** -0.126

**Query** Consider the compound O=C(Nc1ccc(-c2ccncc2)cc1)N[C@H](CO)c1ccccc1 (0.833333 µM) and give its recorded morphology score.
**Result** 0.489

**Query** Consider the compound C=CC1=C(C)C2=CC3=NC(=C(CC(=O)O)C4=NC(=C(C)C4=C(O)O)C=c4[nH]c(c(C)c4CC)=CC1=N2)C(CCC(=O)O)C3C (stereo not given) [chlorophyllin] (10 µM) and give its recorded morphology score.
**Result** 0.148

**Query** Consider the compound Cc1cc(C#N)cc(C)c1Oc1nc(Nc2ccc(C#N)cc2)nc(N)c1Br [etravirine] (10 µM) and give its recorded morphology score.
**Result** 0.364

**Query** Consider the compound CC(=O)Oc1ccc(C(c2ccc(OC(C)=O)cc2)c2ccccn2)cc1 [bisacodyl] (10 µM) and give its recorded morphology score.
**Result** 0.261

**Query** Consider the compound O=C(Nc1ccccc1)[C@]12C[C@H]1/C(=N\O)c1ccccc1O2 (10 µM) and give its recorded morphology score.
**Result** 0.246

**Query** Consider the compound C#CCOC(=O)C1=CCCN(C)C1 [arecaidine-propargyl-ester] (10 µM) and give its recorded morphology score.
**Result** 0.0331

**Query** Consider the compound CC(NCCC(c1ccccc1)c1ccccc1)c1ccccc1 (stereo not given) [fendiline] (10 µM) and give its recorded morphology score.
**Result** 0.771

Sourced from the supplement of paper PMC13380429
